Field: Trep Concentration (μM) 120 min. Provide a value for each of the molecules that follow.
- procedure.details: Stability in cryopreserved hepatocytes, rat
Answers are plain numbers, in µM.

# example entries with known answers
| molecule | Trep Concentration (μM) 120 min [µM] |
| --- | --- |
| CCCCCC(CCC1C(O)CC2Cc3c(cccc3OCC(=O)O)CC21)OC(=O)CO (centres unmarked) [XLIV] | 0.514 |
| CCCCCC1CCC2C(CC3Cc4c(cccc4OCC(=O)O)CC32)OP(=O)(Oc2ccccc2)O1 (mixture of isomers) [XXVIII] | 0 |
| CCCCCC(CCC1C(O)CC2Cc3c(cccc3OCC(=O)O)CC21)OC(=O)C(C)(C)C (centres unmarked) [XLIX] | 0.0273 |

For each of the items listed, what is its Trep Concentration (μM) 120 min?
1. CCCCCC(CCC1C(O)CC2Cc3c(cccc3OCC(=O)O)CC21)OC(=O)c1ccc(O)c(O)c1 (centres unmarked) [LXVI]
2. CCCCCC(CCC1C(O)CC2Cc3c(cccc3OCC(=O)O)CC21)OC(=O)N1CCC(O)CC1 (centres unmarked) [LVIII]
3. CCCCCC(CCC1C(O)CC2Cc3c(cccc3OCC(=O)O)CC21)OCC (centres unmarked) [XLVII]

0
0
0.0216

For each of the items listed, what is its Trep Concentration (μM) 120 min?
1. CCCCCC(CCC1C(O)CC2Cc3c(cccc3OCC(=O)O)CC21)OC(=O)C(C)C (centres unmarked) [LXVII]
2. CCCCCC(CCC1C(O)CC2Cc3c(cccc3OCC(=O)O)CC21)OC(=O)NCCO (centres unmarked) [LIX]
3. CCCCCC(CCC1C(O)CC2Cc3c(cccc3OCC(=O)O)CC21)OC(=O)COc1ccccc1 (centres unmarked) [LXV]
4. CCCCCC(CCC1C(O)CC2Cc3c(cccc3OCC(=O)O)CC21)OC(=O)C(N)CCCCN (centres unmarked) [XXXV]
5. CCCCCC(CCC1C(O)CC2Cc3c(cccc3OCC(=O)O)CC21)OC (centres unmarked) [XLV]
6. CCCCCC(CCC1C(O)CC2Cc3c(cccc3OCC(=O)O)CC21)OC(=O)COc1ccc(OC(F)(F)F)cc1 (centres unmarked) [LXIV]

[0.172, 0, 0.2, 0.239, 0.00521, 0.206]

For each of the items listed, what is its Trep Concentration (μM) 120 min?
1. CCCCCC(CCC1C(O)CC2Cc3c(cccc3OCC(=O)O)CC21)OC(=O)C1CCCN1 (centres unmarked) [XXXVI]
2. CCCCCC(CCC1C(O)CC2Cc3c(cccc3OCC(=O)O)CC21)OC(=O)NC (centres unmarked) [VIII]
3. CCCCCC(CCC1C(O)CC2Cc3c(cccc3OCC(=O)O)CC21)OC(C)=O (centres unmarked) [XLIII]
4. CCCCCC(CCC1C(OC(=O)CC)CC2Cc3c(cccc3OCC(=O)O)CC21)OC(=O)CC (centres unmarked) [Prodrug LXX, treprostinil dipropionate]

0.499
0
0.503
0.405

Fill in Trep Concentration (μM) 120 min for record CCCCCC(CCC1C(O)CC2Cc3c(cccc3OCC(=O)O)CC21)OC(=O)c1ccccc1O (centres unmarked) [LXI]
0.00941
